Each recorded value in this set is attributed to paper PMC8661510.

- assay.remarks: Hemolytic activity assay
- Assay type: cell-based
- assay.conditions: human, erythrocytes; 150 μM peptide; relative to 0.1% Triton X-100; read-out: %HC50 at 150 μM (percentage of hemolysis)
No end group written: not given here.
Each record here notes measured hemolysis at 150 μM.
A number alone suffices; assume %.

// known answers, use as guide
H-FLGWLFKVASK-NH2 [A4W-GGN5, FLGWLFKVASK-NH2, reference compound]: 23
FKPQSGGGKCF-NH2 [Loop1-HCoV-229E, FKPQSGGGKCF-NH2]: 9.2
TYFNAVKPPITA-NH2 [Loop2-PS2Aa, TYFNAVKPPITA-NH2]: 9.4
PARDVLNTTSG-NH2 [P264-G274, PARDVLNTTSG-NH2]: 12.2

q: For NNETYFNAVKP-NH2 [Loop1-PS2Aa, NNETYFNAVKP-NH2] , write its hemolysis at 150 μM.
a: 18.1
